Numbers sourced from PubChem BioAssay (NCI).

tested on: SNB-75 CNS; experiment: NCI tumour cell line growth inhibition, 48 h
// TGI lookup, one value per entry

compound | TGI
CN(N=O)c1ccc(/C=C/c2ccnc3ccccc23)cc1 | > 100 µM
Cc1[nH]c2c(C)c3c([nH]c4ccc(Cl)cc43)c(C)c2c(=O)c1C | > 92.5 µM
O=C1OCOC2(CCCC2)C1c1ccccc1 (stereo unspecified) | > 100 µM
O=C(NOCCO)c1ccc2cncn2c1Nc1ccc(I)cc1F | > 100 µM
COc1cc(O)c(C(=O)C2Cc3ccccc32)c(OC)c1 (stereo unspecified) | > 100 µM
CNC(=O)c1sc(-n2cnc3cc(OC)c(OC)cc32)cc1OCc1ccccc1C(F)(F)F | > 25 µM
